Target: T1, HEN1 Δ38-45 (Arabidopsis thaliana, UniProt Q9C5Q8 1-37+=G+46-942, internal_change)
T1 sequence: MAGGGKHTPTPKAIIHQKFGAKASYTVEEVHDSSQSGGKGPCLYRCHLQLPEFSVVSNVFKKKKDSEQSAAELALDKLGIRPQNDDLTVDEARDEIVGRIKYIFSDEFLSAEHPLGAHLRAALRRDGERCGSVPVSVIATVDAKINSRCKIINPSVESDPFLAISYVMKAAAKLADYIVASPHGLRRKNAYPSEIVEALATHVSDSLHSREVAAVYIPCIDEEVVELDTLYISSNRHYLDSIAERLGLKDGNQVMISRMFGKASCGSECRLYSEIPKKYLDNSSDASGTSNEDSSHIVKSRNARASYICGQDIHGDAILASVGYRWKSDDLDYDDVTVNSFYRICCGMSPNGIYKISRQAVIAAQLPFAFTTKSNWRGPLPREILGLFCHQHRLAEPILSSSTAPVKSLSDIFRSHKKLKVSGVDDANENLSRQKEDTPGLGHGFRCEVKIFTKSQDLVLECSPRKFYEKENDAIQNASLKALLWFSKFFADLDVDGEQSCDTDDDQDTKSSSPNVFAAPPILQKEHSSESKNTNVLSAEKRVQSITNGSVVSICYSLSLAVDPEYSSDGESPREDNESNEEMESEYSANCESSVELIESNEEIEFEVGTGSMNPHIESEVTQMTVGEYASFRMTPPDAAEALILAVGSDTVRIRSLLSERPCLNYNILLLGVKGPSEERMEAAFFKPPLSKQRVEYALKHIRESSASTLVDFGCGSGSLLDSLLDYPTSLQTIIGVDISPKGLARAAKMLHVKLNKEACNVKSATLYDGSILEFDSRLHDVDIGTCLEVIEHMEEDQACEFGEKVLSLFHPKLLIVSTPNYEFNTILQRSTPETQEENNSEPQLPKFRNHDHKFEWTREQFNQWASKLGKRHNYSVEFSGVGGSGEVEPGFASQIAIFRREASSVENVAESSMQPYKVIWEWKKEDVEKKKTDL
Assay: EMSA
Experimental Endpoint: pKd
Answers are plain numbers, as −log10 of the molar value.

Notebook: miR173/miR173* (dsRNA) RNA 1: UUCGCUUGCAGAGAGAAAUCAC RNA 2: GAUUCUCUGUGUAAGCGAAAG , pKd read as 9.49
